subject.of.test: human PDL1 protein (Octet assay) (human, UniProt Q9NZQ7 19-238)
Sequence (Q9NZQ7 19-238 limits assumed): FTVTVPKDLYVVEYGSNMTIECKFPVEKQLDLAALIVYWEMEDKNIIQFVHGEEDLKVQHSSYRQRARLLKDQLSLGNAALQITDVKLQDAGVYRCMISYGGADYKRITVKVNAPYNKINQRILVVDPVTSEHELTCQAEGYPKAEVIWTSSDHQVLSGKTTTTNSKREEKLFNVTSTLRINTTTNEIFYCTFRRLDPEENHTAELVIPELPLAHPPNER
assay.comment: Octet; antibody on sensor, PDL1 protein in solution
endpoint.label: Kd
Quick note: unit goes after the number.

# input Can you share its Kd? I mean this binder: Anti-PDL1/SIRPα bispecific antibody ES019-020 (bispecific antibody, not shown: small tags and cut ends; a dimerising Fc or GST) light (part 1 of 2): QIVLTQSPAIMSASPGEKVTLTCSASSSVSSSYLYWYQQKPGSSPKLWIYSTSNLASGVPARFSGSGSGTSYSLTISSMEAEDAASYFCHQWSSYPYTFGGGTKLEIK light (part 2 of 2): EVQVVESGGGLVQSGGSLKLSCAGSGFTESAGFMVWHRQVPGKERELVALIATPSGSTNYADSVKGRFTISRDNGKNTVYLQMNSLKPEDTAVYYCNIRGYWGQGTLVTVSS heavy: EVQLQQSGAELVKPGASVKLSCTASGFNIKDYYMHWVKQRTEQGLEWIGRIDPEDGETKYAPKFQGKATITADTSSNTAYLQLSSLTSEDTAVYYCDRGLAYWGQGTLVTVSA
# output 5.54 nM

# input Can you share its Kd? I mean this binder: Anti-PDL1 antibody C71 (antibody, V domains shown, Heavy chain antibody (single domain variable region); also called Anti-PDL1, C71) VH: EVQVVESGGGLVQSGGSLKLSCAGSGFTESAGFMVWHRQVPGKERELVALIATPSGSTNYADSVKGRFTISRDNGKNTVYLQMNSLKPEDTAVYYCNIRGYWGQGTLVTVSS
# output 5.31 nM

# input Can you share its Kd? I mean this binder: Anti-PDL1/SIRPα bispecific antibody ES019-026 (bispecific antibody, not shown: small tags and cut ends; a dimerising Fc or GST) light (part 1 of 2): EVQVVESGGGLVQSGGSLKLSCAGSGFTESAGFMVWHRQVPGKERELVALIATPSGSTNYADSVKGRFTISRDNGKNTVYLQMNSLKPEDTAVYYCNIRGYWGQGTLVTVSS light (part 2 of 2): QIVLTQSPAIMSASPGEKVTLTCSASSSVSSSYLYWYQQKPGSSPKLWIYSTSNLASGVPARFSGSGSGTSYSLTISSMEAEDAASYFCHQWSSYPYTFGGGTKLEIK heavy: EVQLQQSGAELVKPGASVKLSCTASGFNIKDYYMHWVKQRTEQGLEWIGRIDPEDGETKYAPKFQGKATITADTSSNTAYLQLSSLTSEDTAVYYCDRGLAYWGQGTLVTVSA
# output 4.1 nM
